Target: Scl-70 (UniProt P11387)
Sequence (P11387 2-765 limits assumed): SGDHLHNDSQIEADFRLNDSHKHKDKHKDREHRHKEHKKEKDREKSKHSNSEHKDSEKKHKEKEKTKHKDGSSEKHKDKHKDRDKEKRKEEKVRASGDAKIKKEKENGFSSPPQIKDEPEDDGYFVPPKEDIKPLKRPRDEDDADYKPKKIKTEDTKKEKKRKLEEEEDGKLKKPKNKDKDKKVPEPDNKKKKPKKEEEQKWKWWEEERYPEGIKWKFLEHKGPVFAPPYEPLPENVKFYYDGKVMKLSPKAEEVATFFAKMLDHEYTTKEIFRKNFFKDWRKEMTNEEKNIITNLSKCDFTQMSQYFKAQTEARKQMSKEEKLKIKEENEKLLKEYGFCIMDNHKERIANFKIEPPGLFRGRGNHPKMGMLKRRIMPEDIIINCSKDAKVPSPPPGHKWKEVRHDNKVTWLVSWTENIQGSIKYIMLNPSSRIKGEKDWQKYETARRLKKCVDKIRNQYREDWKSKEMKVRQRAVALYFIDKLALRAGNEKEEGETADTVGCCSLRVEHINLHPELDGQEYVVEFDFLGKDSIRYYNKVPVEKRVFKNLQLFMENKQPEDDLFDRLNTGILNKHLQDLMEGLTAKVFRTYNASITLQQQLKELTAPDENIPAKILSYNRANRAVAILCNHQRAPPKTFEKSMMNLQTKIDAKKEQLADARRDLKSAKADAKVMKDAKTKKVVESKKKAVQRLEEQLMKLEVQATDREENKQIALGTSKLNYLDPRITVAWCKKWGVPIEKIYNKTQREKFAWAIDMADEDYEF
Assay: AtheNA, Ab 12.5 ug/ml
recorded metric: Athena reading (relative luminescence units)

- binder: "CH239_4A/293i (antibody, from a related filing, V domains shown) VH: QVQLVQSGAEVRKPGASVTVSCKASGYTFNNFYVHWVRQAPGQGLECMGWIDPSVGRINYAQKFQGRVTMTRDRSTSTVYMGLSSLRSEDTAIYYCVRDVGTEGSLLHFDHWGQGTLVIVSA VL: EIVLTQSPATLSVSPGERATLSCRATQSVRSNVAWYQQKPGQAPRLLIYSASTRATGIPARFSGSGSGTEFTLTIASMQSEDFAVYYCLQYDDWWTFGQGTKVEIK"
  recorded value: 48
